inhibition reference
# target_or_test_system: Methyl-CpG-binding domain protein 2 (Homo sapiens) (UniProt Q9UBB5)
# Sequence (Q9UBB5 whole entry, looked up, the tested form may be a part): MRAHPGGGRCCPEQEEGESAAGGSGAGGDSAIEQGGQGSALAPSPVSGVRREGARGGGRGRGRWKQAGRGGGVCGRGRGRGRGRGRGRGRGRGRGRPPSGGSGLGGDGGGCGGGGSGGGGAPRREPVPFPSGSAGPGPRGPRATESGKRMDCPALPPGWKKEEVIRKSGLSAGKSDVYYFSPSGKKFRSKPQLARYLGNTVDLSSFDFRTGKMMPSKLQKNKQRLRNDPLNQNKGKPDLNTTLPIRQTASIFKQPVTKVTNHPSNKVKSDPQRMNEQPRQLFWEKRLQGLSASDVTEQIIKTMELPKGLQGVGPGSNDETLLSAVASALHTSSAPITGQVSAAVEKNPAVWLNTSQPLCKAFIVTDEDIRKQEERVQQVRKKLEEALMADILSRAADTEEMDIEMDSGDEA
# test_method_notes: inhibitors of MBD2 binding to methylated DNA, primary screen, biochemical, TR-FRET, DNA-binding domain, human (AID 686964)
# condition_parameters: MBD2 binding to methylated oligonucleotide, at 4.4 µM, hits give high values
Out of some 370,000 compounds screened, about 1,100 (0.3%) were called active. Only a selection was taken, and actives are over-represented in it overall.
reported_property: inhibition (%)

- smiles: "CO/N=C(/CS(=O)(=O)c1ccc(Br)cc1)c1ccc(OC)cc1"
  observed_value: 14
- smiles: "COC(=O)c1ccc(SCc2ccccc2)nc1"
  observed_value: -4.53
- smiles: "CCc1ccccc1NC(=O)CN(c1ccc(OC)cc1OC)S(=O)(=O)c1ccccc1[N+](=O)[O-]"
  observed_value: 2.54
- smiles: "Cc1nc(S(=O)(=O)c2ccc(Br)cc2)nc2c1CCC2"
  observed_value: 1.36
- smiles: "CCCN(CC(=O)NC(=O)NC1CCCCC1)CC(=O)Nc1cc(Cl)ccc1Cl"
  observed_value: -5.45
- smiles: "CNC(=O)C[C@H]1C(=O)N(Cc2ccccc2)C[C@@H]1CSC"
  observed_value: 3.38
- smiles: "COc1ccc(CSc2nnc(-c3cccc(C)c3)n2C)cc1"
  observed_value: 0
- smiles: "O=C1/C(=C\\c2ccc([N+](=O)[O-])cc2)CS(=O)(=O)C/C1=C/c1ccc([N+](=O)[O-])cc1"
  observed_value: -5.61
- smiles: "CC(C)CC(CC(C)C)=NNC(=O)c1ccc(CSc2nncn2C)cc1"
  observed_value: -5.89
- smiles: "O=C(CSc1nncn1-c1cccnc1)N1CCOCC1"
  observed_value: 2.16
- smiles: "C=CCN1C(=O)[C@@H](CC(=O)N2CCN(C(=O)OCC)CC2)[C@]2(C(=O)OCC)CCCCC/C=C/12"
  observed_value: 4.9
